What CC50 at 72 h was measured for each of the following?
assay: in vitro; settings: human, Cytotoxicity (LC50)
State the answer as a number, implicitly in µM.

Quick one: CC50 at 72 h of "COCOc1cc(O)c(C(=O)C=Cc2ccc(OC)cc2)cc1CC=C(C)C" ?
43.4

Moving on to the next compound: "CC(=O)c1c(O)cc(O)c(CC=C(C)C)c1O"
21.2

Follow-up item: CC(=O)c1c(O)cccc1O [Compound 7, 1-(2,6-Dihydroxyphenyl)ethan-1-one]
10.5

Another compound: "COCOc1cc2oc(-c3ccc(OC)cc3)cc(=O)c2cc1CC=C(C)C"
17

* * *

For each of the compounds below, state its EC50.
system: intracellular amastigotes of T. cruzi (Tulahuen strain transfected with the β-galactosidase gene); test: Anti-trypanosomal activity, β-galactosidase readout in infected U937 macrophages, 72 h; type: cell-based, Trypanosoma cruzi; settings: Trypanosoma cruzi, TULAHUEN, U-937, 72 h, read-out: Trypanocidal Activity (EC50), intracellular amastigotes of T. cruzi Tulahuen in U937 macrophages, 72 h; average ± SD (SEM)

Suppose we examine the compound "CC(C)=CCc1cc2c(=O)ccoc2cc1O" ; what EC50 value has been reported?
> 20 µM

Would you kindly repeat that for "CC(C)=CCc1c(O)ccc2c(=O)ccoc12" ?
111 µM

Now consider "CC(C)=CCc1cc2c(=O)ccoc2c(O)c1O" and answer again.
< 10 µM

Follow-up item: "COCOc1cc2oc(-c3ccc(Cl)cc3)cc(=O)c2cc1CC=C(C)C"
> 13.6 µM

Also check "CC(=O)c1c(O)ccc(CC=C(C)C)c1O"
> 4 µM
